Attribution: the supplement of paper PMC7125110

B1: glmS ribozyme (parent)
chain: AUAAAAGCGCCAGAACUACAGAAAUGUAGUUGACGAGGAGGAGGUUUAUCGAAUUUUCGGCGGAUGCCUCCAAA

# Variants of: B1
# EXPERIMENT SUMMARY: self-cleavage kobs at 10000 uM GlcN6P; higher = faster cleavage; RNA array
# RUN CONDITIONS: with glucosamine-6-phosphate
This sample holds only a part of the variants without activity.
Everything with self-cleavage kobs at 10000 uM GlcN6P lower than 0.0004 s⁻¹ is not fulfilled; everything else, including exactly 0.0004 s⁻¹, is fulfilled.

{"columns": ["VARIANT DESIGNATION", "ASSIGNED CLASS"],
 "data": [
  ["G37C U45A U54C G63C", "not fulfilled"],
  ["A12G A42U", "not fulfilled"],
  ["A39C G51A", "not fulfilled"],
  ["G9C C71G", "not fulfilled"],
  ["G63U U65G", "not fulfilled"],
  ["U54A U55A", "fulfilled"],
  ["A15G G41A", "fulfilled"],
  ["G29U G37A C71U", "not fulfilled"],
  ["U46G G66U", "fulfilled"],
  ["G9A A36C G41U A64G C70U", "not fulfilled"],
  ["U47A C50G C68A", "not fulfilled"],
  ["G7U G35U G38C", "not fulfilled"],
  ["A48C A53C", "not fulfilled"],
  ["A64U C68A", "not fulfilled"],
  ["G35U C58U", "not fulfilled"],
  ["C10U U30A C68U", "not fulfilled"],
  ["G43A U57A", "not fulfilled"],
  ["A15U U55C", "fulfilled"],
  ["U54A C67G", "fulfilled"],
  ["G9U G29C G41A", "not fulfilled"],
  ["A14G A15G A33G G40U", "not fulfilled"],
  ["A15C A23C", "fulfilled"],
  ["C10U A36C G40U G59U C67G", "not fulfilled"],
  ["G9U U30A G38A G40C U56A C70A", "not fulfilled"],
  ["U31C G37A", "not fulfilled"],
  ["C11U A15G C58G C68U", "not fulfilled"],
  ["G41A G63U C70U", "not fulfilled"],
  ["G35C A48C", "not fulfilled"],
  ["U54G G66U", "fulfilled"],
  ["U55G U65G", "fulfilled"],
  ["C50G G59C C67G", "not fulfilled"],
  ["G40C C70A", "not fulfilled"],
  ["U31A U55C G63C C67G", "not fulfilled"],
  ["A36U C50G U69G", "not fulfilled"],
  ["A48G U55G", "not fulfilled"],
  ["A6U C50G A53C C71A", "not fulfilled"],
  ["U49G U56C", "not fulfilled"],
  ["G13U U30A G43C", "not fulfilled"],
  ["G29C U54G G60A", "not fulfilled"],
  ["U47A G51C", "not fulfilled"],
  ["C8U G29A U31G", "not fulfilled"],
  ["G40A U55G", "fulfilled"],
  ["G41U U56A C70A", "fulfilled"],
  ["G38A A52U", "not fulfilled"],
  ["U46C C71U", "fulfilled"],
  ["U31C G32U", "fulfilled"],
  ["U46G U54A", "fulfilled"],
  ["G13A A64G", "fulfilled"],
  ["A33U A53U A64U", "not fulfilled"],
  ["A36U U69G", "not fulfilled"],
  ["A42C A48U G66C", "not fulfilled"],
  ["A12C U46A", "fulfilled"],
  ["A14U U54A", "fulfilled"],
  ["A6U C11U G13A", "not fulfilled"],
  ["A42U U56C", "not fulfilled"],
  ["G29U G51C", "not fulfilled"],
  ["A48C U69C", "not fulfilled"],
  ["G26U C50G", "not fulfilled"],
  ["A6G U30G", "not fulfilled"],
  ["U31C A39G C50U U54G C58A G60C G62U", "not fulfilled"],
  ["U57G C58G C67G", "not fulfilled"],
  ["U54G C58A", "fulfilled"],
  ["U45A", "fulfilled"],
  ["U31C U45A", "fulfilled"],
  ["A39C G40U", "not fulfilled"],
  ["G51C U55C", "not fulfilled"],
  ["U54G C58G A64G C71U", "not fulfilled"],
  ["G44U C67A", "fulfilled"],
  ["A12C G32A U54G", "not fulfilled"],
  ["A15U G37U", "not fulfilled"],
  ["A6G A12C", "not fulfilled"],
  ["C11U C34G A52U", "not fulfilled"],
  ["G7U U45C", "not fulfilled"],
  ["C11A U31G", "not fulfilled"],
  ["G43A U45A", "not fulfilled"],
  ["C11A A42G C67U", "not fulfilled"],
  ["G37C U54C C61U C67G", "not fulfilled"],
  ["A39C A53G", "fulfilled"],
  ["C8G G29A", "not fulfilled"],
  ["U45C U65G C70U", "not fulfilled"],
  ["G29C G32C A39G", "not fulfilled"],
  ["G38U A39U A42C A48U", "not fulfilled"],
  ["U45A A64G", "fulfilled"],
  ["A42G G62C", "not fulfilled"],
  ["A12U U47G U57C", "fulfilled"],
  ["A15U A33C", "not fulfilled"]
]}
